Target: sGC α1/β1 heterodimer stably expressed in CHO-K1 cells (CHO-K1/sGC) (Homo sapiens, UniProt Q02108+Q02153)
Construct: expressed in transfected cells
Sequence (Q02108 whole entry): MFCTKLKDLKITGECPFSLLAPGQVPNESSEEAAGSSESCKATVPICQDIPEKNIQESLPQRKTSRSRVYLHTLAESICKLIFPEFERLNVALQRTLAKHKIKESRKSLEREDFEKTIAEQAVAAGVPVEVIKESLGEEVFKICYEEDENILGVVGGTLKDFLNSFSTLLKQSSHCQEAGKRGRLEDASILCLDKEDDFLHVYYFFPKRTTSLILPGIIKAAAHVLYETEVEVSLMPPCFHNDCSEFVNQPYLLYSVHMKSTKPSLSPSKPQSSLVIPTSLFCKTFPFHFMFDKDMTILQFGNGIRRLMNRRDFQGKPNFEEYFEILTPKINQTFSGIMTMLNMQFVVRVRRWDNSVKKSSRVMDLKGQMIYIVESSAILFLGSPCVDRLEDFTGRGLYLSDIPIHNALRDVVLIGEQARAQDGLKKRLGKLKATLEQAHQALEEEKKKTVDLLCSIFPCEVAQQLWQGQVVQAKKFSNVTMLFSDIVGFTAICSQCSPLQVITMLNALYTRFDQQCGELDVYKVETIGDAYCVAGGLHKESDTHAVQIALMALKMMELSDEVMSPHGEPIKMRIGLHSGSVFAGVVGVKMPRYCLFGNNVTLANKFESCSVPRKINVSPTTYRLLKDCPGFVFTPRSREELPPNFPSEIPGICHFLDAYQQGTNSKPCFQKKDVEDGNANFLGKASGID
Sequence (Q02153 whole entry): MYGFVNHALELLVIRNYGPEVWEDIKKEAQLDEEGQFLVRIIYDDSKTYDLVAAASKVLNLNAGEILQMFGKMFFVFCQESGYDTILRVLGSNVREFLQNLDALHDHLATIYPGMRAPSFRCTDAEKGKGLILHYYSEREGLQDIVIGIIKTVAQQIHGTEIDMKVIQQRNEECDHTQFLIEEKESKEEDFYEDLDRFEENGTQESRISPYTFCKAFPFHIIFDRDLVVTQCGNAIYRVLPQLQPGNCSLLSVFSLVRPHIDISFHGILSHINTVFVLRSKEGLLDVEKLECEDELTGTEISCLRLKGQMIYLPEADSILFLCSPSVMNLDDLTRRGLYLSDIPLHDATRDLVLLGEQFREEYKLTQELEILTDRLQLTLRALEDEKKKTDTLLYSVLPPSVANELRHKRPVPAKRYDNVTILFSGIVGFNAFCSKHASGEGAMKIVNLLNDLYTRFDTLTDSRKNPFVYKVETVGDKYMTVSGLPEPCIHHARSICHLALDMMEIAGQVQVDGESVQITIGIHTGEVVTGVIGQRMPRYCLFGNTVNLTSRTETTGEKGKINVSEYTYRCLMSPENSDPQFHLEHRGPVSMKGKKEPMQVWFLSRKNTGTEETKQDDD
Assay: Cell-based sGC Functional Assay (CASA Assay)
Details: inflection point of cGMP generation in CHO-K1/sGC cells, 4P fit; 1 hr at 37° C.; read-out: IP
Labelling field: enter condition met if recorded EC50 is less than 400 nM. Enter condition not met if it equals or exceeds that cut-off.

Cn1ncc2c(-c3nc(N)c4c(n3)NC(=O)C4(c3ccc(Cl)cn3)C3CC3)nc(CC3CC(F)(F)C3)nc21 (stereo not shown) ... condition met

Does Cn1ncc2c(-c3nc(N)c4c(n3)NC(=O)C4(C)c3cn(CC4CC4)nn3)nc(CCC(F)(F)C(F)(F)F)nc21 (stereo not shown) have EC50 strictly under 400 nM? condition met

Please check: EC50 for Cn1ncc2c(-c3nc(N)c4c(n3)NC(=O)C4(C)c3c[nH]nn3)nc(CCC(F)(F)C(F)(F)F)nc21 (single isomer, unassigned) , strictly under 400 nM or not? condition not met

Field: below-cutoff. Rule: recorded EC50 strictly less than 400 nM. Subject: Cn1ncc2c(-c3nc(N)c4c(n3)NC(=O)C4(C)c3cn(C4CC4)nn3)nc(CCC(F)(F)C(F)(F)F)nc21 (stereo not shown) condition met

Check if EC50 falls below 400 nM for CC(C)n1cc(C2(C)C(=O)Nc3nc(-c4nc(CCC(F)(F)C(F)(F)F)nc5c4cnn5C)ncc32)nn1 (stereo not shown) . condition not met

For this compound, is EC50 lower than 400 nM? CC(C)n1cc(C2(C)C(=O)Nc3nc(-c4nc(CCCC(F)(F)F)nc5c4cnn5C)nc(N)c32)nn1 (stereo not shown) condition met

Is EC50 strictly under 400 nM for the entry Cn1ccc2c(-c3nc(N)c4c(n3)NC(=O)C4(c3nnc(C4CC4)o3)C3CC3)nc(CCC(F)(F)C(F)(F)F)nc21 (stereo not shown) ? condition not met

* * *

Molecular target: sGC α1/β1 heterodimer stably expressed in CHO-K1 cells (CHO-K1/sGC) (Homo sapiens, UniProt Q02108+Q02153)
Construct: expressed in transfected cells
Experiment: Cell-based sGC Functional Assay (CASA Assay)
Conditions: CHO-K1, activation as percentage of maximum cGMP production of Compound A (set to 100%); read-out: % Act.
Assignment: determine reported Emax for the given compounds.
Numbers only, in %.

Cn1ncc2c(-c3nc(N)c4c(n3)NC(=O)C4(C)c3ccc(F)cn3)nc(CCC3CCC3)nc21 (stereo not shown) ... 98

Give one value of Emax per listed compound.
1. CCCCc1nc(-c2nc(N)c3c(n2)NC(=O)C3(C)c2ccc(C(C)C)cn2)c2cnn(C)c2n1 (stereo not shown)
2. CC(C)Cn1cc(C2(C)C(=O)Nc3nc(-c4nc(CCC(F)(F)C(F)(F)F)nc5c4cnn5C)nc(N)c32)nn1 (stereo not shown)
3. CCC1(c2cn(C)nn2)C(=O)Nc2nc(-c3nc(CCC(F)(F)C(F)(F)F)nc4c3cnn4C)nc(N)c21 (single isomer, unassigned)

1: 88; 2: 132; 3: 105

* * *

Biological target: sGC α1/β1 heterodimer stably expressed in CHO-K1 cells (CHO-K1/sGC) (Homo sapiens, UniProt Q02108+Q02153)
Construct: expressed in transfected cells
Test: Cell-based sGC Functional Assay (CASA Assay)
Conditions: inflection point of cGMP generation in CHO-K1/sGC cells, 4P fit; 1 hr at 37° C.; read-out: IP
Strictly below 200 nM in EC50: condition met. Otherwise: condition not met.

Example entries begin here.
Cn1ncc2c(-c3nc(N)c4c(n3)NC(=O)C4(C)c3ccc(F)cn3)nc(CCC(F)(F)C(F)(F)F)nc21 (stereo not drawn) [Example 1] ... condition met
[2H]C([2H])([2H])n1ncc2c(-c3nc(N)c4c(n3)NC(=O)C4(C)c3cn(C(C)C)nn3)nc(CCC(F)(F)C(F)(F)F)nc21 (stereo not drawn) [Example 67] ... condition met

Take the molecule Cn1cc(C2(C3CC3)C(=O)Nc3nc(-c4nc(CCCC(F)(F)F)nc5c4cnn5C)nc(N)c32)nn1 (single isomer, unassigned) [Example 62] and say whether its EC50 is less than 200 nM. condition not met

For this molecule, is EC50 lower than 200 nM? [2H]C([2H])([2H])n1ncc2c(-c3nc(N)c4c(n3)NC(=O)C4(c3nc(CC(C)(C)C(=O)O)cs3)C3CC3)nc(CCC(F)(F)C(F)(F)F)nc21 (stereo not drawn) [Example 83] condition not met
